- measured_target: menin-MLL interaction (Homo sapiens, UniProt O00255)
- Sequence (O00255 1-610): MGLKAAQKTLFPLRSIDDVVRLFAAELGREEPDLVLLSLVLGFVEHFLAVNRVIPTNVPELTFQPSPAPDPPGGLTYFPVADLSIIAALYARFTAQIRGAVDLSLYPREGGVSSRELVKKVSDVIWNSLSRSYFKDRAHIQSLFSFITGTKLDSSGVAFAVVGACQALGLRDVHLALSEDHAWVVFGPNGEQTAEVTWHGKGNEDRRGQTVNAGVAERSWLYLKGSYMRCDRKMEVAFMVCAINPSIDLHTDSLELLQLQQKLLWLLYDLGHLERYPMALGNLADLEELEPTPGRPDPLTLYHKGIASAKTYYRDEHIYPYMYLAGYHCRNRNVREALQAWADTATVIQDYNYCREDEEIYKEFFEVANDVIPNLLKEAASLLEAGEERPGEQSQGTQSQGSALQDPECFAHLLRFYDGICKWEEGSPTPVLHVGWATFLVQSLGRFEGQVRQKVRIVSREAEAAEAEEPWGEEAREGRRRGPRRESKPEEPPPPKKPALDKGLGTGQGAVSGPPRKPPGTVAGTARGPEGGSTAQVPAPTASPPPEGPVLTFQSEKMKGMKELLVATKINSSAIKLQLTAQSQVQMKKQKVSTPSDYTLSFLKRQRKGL
- measurement_notes: biochemical
pIC50: −log10 of the molar value.
I'd appreciate it if you could supply pIC50 values for the items below.

Field: pIC50 (menin-MLL interaction (Homo sapiens, UniProt O00255)). Entry: "CC(F)(F)Cc1cc2c(NC3CCN(Cc4ccccc4)CC3)ncnc2s1"
5.70 to 6.30

Do the same for CC1(C)CN=C(N2C[C@@H]3C[C@H]2CN3c2ncnc3sc(CC(F)(F)F)cc23)S1 (racemic) please
6.29 to 7.00
